Molecular target: T1, FNsACP, homolog of ArCPNp from Fischerella
T1 chain: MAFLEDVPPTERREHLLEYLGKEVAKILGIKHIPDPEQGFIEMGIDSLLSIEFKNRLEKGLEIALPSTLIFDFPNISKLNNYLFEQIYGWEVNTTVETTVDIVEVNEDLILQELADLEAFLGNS
result type: kcat (s⁻¹)
Give bare numbers, in s⁻¹.

Need kcat, item APPT, Sfp-like phosphopantetheinyl transferase (PPTase) from Anabaena sp. PCC7120 (protein) MLQHTWLPKPPNLTLLSDEVHLWRIPLDQPESQLQDLAATLSSDELARANRFYFPEHRRRFTAGRGILRSILGGYLGVEPGQVKFDYESRGKPILGDRFAESGLLFNLSHSQNLALCAVNYTRQIGIDLEYLRPTSDLESLAKRFFLPREYELLRSLPDEQKQKIFFRYWTCKEAYLKATGDGIAKLEEIEIALTPTEPAKLQTAPAWSLLELVPDDNCVAAVAVAGFGWQPKFWHY
0.0367
